# Test system: COV318
# assay_remarks: drug sensitivity score (DSS) from 5-point dose-response viability curve (DSS (area-under-curve based score)); higher = more sensitive (stronger growth inhibition or killing); extreme values may be limits of the assay
# measurement_parameters: exposure time: 72 h; concentration range: 5 concentrations over 10,000-fold range
Entries annotated with measured drug sensitivity score
The response must contain the number and no unit.

Some solved entries appear below for comparison.
NC(=O)c1cccc2cn(-c3ccc([C@@H]4CCCNC4)cc3)nc12 | 1.1
CC[C@@H]1C(=O)OC[C@@H]1Cc1cncn1C | 0
CC(C)(C)c1cc(NC(=O)Nc2ccc(Oc3ccnc4[nH]c(=O)cnc34)cc2F)n(-c2ccccc2)n1 | 0
COc1cccc(-c2ccc(NC(=O)C3=C(C(=O)O)CCC3)c(F)c2)c1 | 0
CCCCNc1ncc(C(=O)NCc2ccc(-n3ccnc3)cc2)c(NC2CCC(O)CC2)n1 (centres undefined) | 0
CC(=O)c1c(C)c2cnc(Nc3ccc(N4CCNCC4)cn3)nc2n(C2CCCC2)c1=O | 3.2
O=C(NOC[C@H](O)CO)c1ccc(F)c(F)c1Nc1ccc(I)cc1F | 0
CNc1ncc2cc(-c3cc(NC(=O)NCCC(C)(C)C)c(F)cc3C)c(C)nc2n1 | 0.8

Please examine the following record next.
The value of drug sensitivity score measured for the molecule CNC(=O)c1ccc(N2C(=S)N(c3cnc(C#N)c(C(F)(F)F)c3)C(=O)C23CCC3)cc1F [Apalutamide] turned out to be 0
